Catalogue of compounds with associated EC50
- System: Leishmania donovani
- Assay summary: Antiproliferative activity against Leishmania donovani DI700 promastigotes overproducing ODC enzyme
- Type: functional, organism-based
Property name: EC50 (µM)

{"Compound": "N=C(N)c1ccc(OCCCCCOc2ccc(C(=N)N)cc2)cc1 [PENTAMIDINE]", "Property name": "EC50", "Unit annotation": "µM", "Modifier": "=", "Measured number": 2.6}
{"Compound": "CC(/C=N/NC(=N)N)=N\\NC(=N)N [MITOGUAZONE]", "Property name": "EC50", "Unit annotation": "µM", "Modifier": "=", "Measured number": 2200}
{"Compound": "NCCC[C@](N)(C(=O)O)C(F)F [EFLORNITHINE, (S)-]", "Property name": "EC50", "Unit annotation": "µM", "Modifier": ">", "Measured number": 1000}
{"Compound": "CN(C/C=C\\CN)C[C@H]1O[C@@H](n2cnc3c(N)ncnc32)[C@H](O)[C@@H]1O", "Property name": "EC50", "Unit annotation": "µM", "Modifier": "=", "Measured number": 2700}

Reference for the values: ChEMBL document CHEMBL1142196
